# assayComment: yeast display, Sf9 membrane polyspecificity reagent, FACS + sequencing; frameworks hold sequencing errors
measureName: polyreactivity (PSR sort gate)

Worked examples follow.
Input line: Supply polyreactivity (PSR sort gate) value. Item: `QVQLVESGGGLVQAGGSLRLSCAASGSIFRFYTMGWYRQAPGKERELVAAIRYRGTSTYYADSVKGRFTISRDNAKNTVYLQMNSLKPEDTAVYYCATRNIYFSSVDYWGQGTQVTVSS`
Output line: high polyreactivity

Input line: Tell me polyreactivity (PSR sort gate) reported for `QVQLVESGGGLVQAGGSLRLSCAASGISFSQYARGWYRQAPGKERELVAAISGSGGDTYYADSVKGRFTISRDNAKNTVYLQMNSLKPEDTAVYYCNADYESVYYEDYDYWGQGTQVTVSS`
Output line: low polyreactivity

Input line: Fill in polyreactivity (PSR sort gate) for record `QVQLVESGGGLVQAGVSLRLSCAPSGRTFIYYAMGWYRQAPGKERELVATINGITGSTYYADSVKGRFTNSRDNAKNTVYLQMNSLKPEDTAVYYCAKVPRKYRAWMDYWGQGTQVTVSS`
Output line: high polyreactivity

Input line: Give a short answer stating reported polyreactivity (PSR sort gate) for `QVQLVESGGGLVQAGGSLRLSCAASGYIFLRNAMAWYTKAPGKERELVAAIRRTGGSTYYADSVKGRFTISRDNAKNTVYLQMNSLKPEDTAVYYCAKRSYTGYEYWGQGTQVTVSS` .
Output line: low polyreactivity

More entries:
Input line: Input `QVQLVESGGGLVQAGGSLRLSCAASGYIFILYAKGWYRQATGKERQLVATISSNAVSTYYADSVKGRFTISRDNAKITVYLQMNSLKPEDTAVYYCNVEYTPNTVSGYDYWGQGTQVTVSS` , output reported polyreactivity (PSR sort gate).
Output line: low polyreactivity
